Cited source: the supplement of paper PMC11208160

test: recombinant UMI read abundance after kanamycin selection (control-corrected) (log10(CPM+1)); higher = more efficient recombination; extreme values may be limits of the assay; sequences stand for … in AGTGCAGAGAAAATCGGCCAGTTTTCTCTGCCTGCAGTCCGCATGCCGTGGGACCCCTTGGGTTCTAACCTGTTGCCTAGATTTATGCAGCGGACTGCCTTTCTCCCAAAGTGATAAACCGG…AGGTTGGTTTCACT; site = the 11-nt donor
Decision: recombinant UMI read abundance (log10) compared against 0.2; not below it gives 1.0, below it gives 0.0.

sequence="AGCAATCCATGGACCGGTTTTCCCGGTAATCCGTATTTGAA (site TGCAATCCTTT)" class=0.0
sequence="AGATCGACATGGACCGGTTTTCCCGGTAATCCGTATTTGTT (site CGATCGACTAA)" class=0.0
sequence="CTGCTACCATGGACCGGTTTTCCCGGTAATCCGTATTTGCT (site CTGCCACCTAG)" class=0.0
sequence="AGCCTACCATGGACCGGTTTTCCCGGTAATCCGTATTTGTT (site AGCCTACCTAA)" class=0.0
sequence="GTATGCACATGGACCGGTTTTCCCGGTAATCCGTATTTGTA (site GTATACACTTA)" class=1.0

---

assay: recombinant barcode read abundance after kanamycin selection (control-corrected) (log10(CPM+1)); higher = more efficient recombination; sequences stand for … in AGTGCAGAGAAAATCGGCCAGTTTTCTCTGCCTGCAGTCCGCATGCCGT…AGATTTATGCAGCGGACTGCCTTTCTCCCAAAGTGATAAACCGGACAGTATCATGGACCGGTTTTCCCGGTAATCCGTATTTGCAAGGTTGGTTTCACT; site = the 11-nt target
measurementLabel: recombinant barcode read abundance (log10)

sequence="TGTAAGGCTTGGGTTCTAACCTGTTGCTT (site TGTAAGACTCA)" experimentalresult=0.142
sequence="TAGGCTACTTGGGTTCTAACCTGTTGCAT (site TAGGCTACTGT)" experimentalresult=0.132
sequence="TACATCCCTTGGGTTCTAACCTGTTGCCT (site TACATCCCTCG)" experimentalresult=0.0996
sequence="GTGGGCTCTTGGGTTCTAACCTGTTGCCT (site GTGGGCTCTAG)" experimentalresult=2.01
sequence="GAGGGTTCTTGGGTTCTAACCTGTTGCAT (site GAGGGTGCTAG)" experimentalresult=0.528
sequence="GCTCTCCCTTGGGTTCTAACCTGTTGCCT (site GCACTCCCTAG)" experimentalresult=0.0891
sequence="ACCCAAACTTGGGTTCTAACCTGTTGCCT (site ACCCAATCTAG)" experimentalresult=0.0553
sequence="GAGACGGCTTGGGTTCTAACCTGTTGCTT (site GAGTCGGCTAA)" experimentalresult=0.206
sequence="GGGGTTCCTTGGGTTCTAACCTGTTGCCT (site GGGGTTCCTAG)" experimentalresult=2.3
sequence="GAGAGCACTTGGGTTCTAACCTGTTGCCA (site GAGGGCACTTG)" experimentalresult=0.329
sequence="ACGATACCTTGGGTTCTAACCTGTTGCCT (site ACGTTACCTAG)" experimentalresult=0.0943
sequence="TGCTAGGCTTGGGTTCTAACCTGTTGCCT (site TGCTAGGCTAG)" experimentalresult=0.0609
sequence="AGAGAGACTTGGGTTCTAACCTGTTGCCT (site AGAGAGACTAG)" experimentalresult=2.43
sequence="ATGAGAACTTGGGTTCTAACCTGTTGCCT (site ATGAGAACTCG)" experimentalresult=0.361
sequence="AGCCGAACTTGGGTTCTAACCTGTTGCCT (site AGCCGAACTAG)" experimentalresult=0.832
sequence="GTGTCTACTTGGGTTCTAACCTGTTGCCT (site GTGTCTACTAG)" experimentalresult=0.754
sequence="TCCCAAGCTTGGGTTCTAACCTGTTGCTA (site TCCGAAGCTTA)" experimentalresult=0.0505
sequence="CGCCTCCCTTGGGTTCTAACCTGTTGCCT (site CGCCTCGCTAG)" experimentalresult=0
sequence="GTCCCTCCTTGGGTTCTAACCTGTTGCCT (site GTCCCTCCTAA)" experimentalresult=0.187
sequence="TAGTGTCCTTGGGTTCTAACCTGTTGCGT (site TAGTGTCCTAC)" experimentalresult=1.86
sequence="TGTAATGCTTGGGTTCTAACCTGTTGCCT (site TGTAATTCTAG)" experimentalresult=0.181
sequence="GTGTGGCCTTGGGTTCTAACCTGTTGCCA (site GTGTGGCCTTG)" experimentalresult=0.574
sequence="CTTACAGCTTGGGTTCTAACCTGTTGCCT (site CTTACTGCTAG)" experimentalresult=0.147
sequence="TAGGATACTTGGGTTCTAACCTGTTGCAA (site TAGGATACTCT)" experimentalresult=0.401
sequence="ATGACCGCTTGGGTTCTAACCTGTTGCCA (site AGGACCACTTG)" experimentalresult=0.246
sequence="ATCGGAGCTTGGGTTCTAACCTGTTGCCG (site ATCGGAGCTCA)" experimentalresult=0.165
sequence="GGAGCTCCTTGGGTTCTAACCTGTTGCCA (site GGAGCTCCTTG)" experimentalresult=0.371
sequence="GAGACTGCTTGGGTTCTAACCTGTTGCCT (site GATACTGCTAG)" experimentalresult=0.0802
sequence="CAAACAGCTTGGGTTCTAACCTGTTGCCT (site CAAACATCTAG)" experimentalresult=0.113
sequence="CTAGGAGCTTGGGTTCTAACCTGTTGCTG (site CTAGGAGCTCA)" experimentalresult=1.75
sequence="CAGAAGCCTTGGGTTCTAACCTGTTGCCT (site GAGAAGCCTAG)" experimentalresult=0.193
sequence="GAAACTGCTTGGGTTCTAACCTGTTGCCT (site GACACTGCTAG)" experimentalresult=0.211
sequence="CTAGTGACTTGGGTTCTAACCTGTTGCGC (site CTAGTGACTCC)" experimentalresult=0.0835
sequence="TAGGTACCTTGGGTTCTAACCTGTTGCAT (site TAGGTTCCTAT)" experimentalresult=0.0968
sequence="GTATATACTTGGGTTCTAACCTGTTGCCT (site GTCTATACTAG)" experimentalresult=0.112
sequence="GATAGCTCTTGGGTTCTAACCTGTTGCCT (site CATAGCTCTAG)" experimentalresult=0.0838
sequence="AGGTTCCCTTGGGTTCTAACCTGTTGCTC (site AGGTTCCCTTA)" experimentalresult=0.026
sequence="TAGACTACTTGGGTTCTAACCTGTTGCCT (site TAGACTACTAG)" experimentalresult=0.521
sequence="TACGAATCTTGGGTTCTAACCTGTTGCCT (site TACGAATCTCG)" experimentalresult=0.0232
sequence="TTGGGAGCTTGGGTTCTAACCTGTTGCCT (site TTGGTAGCTAG)" experimentalresult=0.442
sequence="TCATCCGCTTGGGTTCTAACCTGTTGCCT (site TCATCCGCTAG)" experimentalresult=1.05
sequence="TTAAGCTCTTGGGTTCTAACCTGTTGCCT (site TTAAGCTCTAG)" experimentalresult=1.43

---

test: recombinant UMI read abundance after kanamycin selection (control-corrected) (log10(CPM+1)); higher = more efficient recombination; extreme values may be limits of the assay; sequences stand for … in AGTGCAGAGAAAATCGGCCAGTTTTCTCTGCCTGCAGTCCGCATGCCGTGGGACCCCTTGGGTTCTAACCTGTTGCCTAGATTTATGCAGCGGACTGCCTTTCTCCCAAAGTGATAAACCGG…AGGTTGGTTTCACT; site = the 11-nt donor
measurementLabel: recombinant UMI read abundance (log10)

sequence="CGCACATCATGGACCGGTTTTCCCGGTAATCCGTATTTGCT (site CGTACATCTAG)" experimentalresult=0
sequence="TATGACCCATGGACCGGTTTTCCCGGTAATCCGTATTTGAG (site TATGACCCTCT)" experimentalresult=0.00635
sequence="ATTGATACATGGACCGGTTTTCCCGGTAATCCGTATTTGCG (site CCACTCCCTGT)" experimentalresult=0
sequence="ACTAGGGCATGGACCGGTTTTCCCGGTAATCCGTATTTGGT (site ACTAGAGCTAC)" experimentalresult=1.2
sequence="AACTATTCATGGACCGGTTTTCCCGGTAATCCGTATTTGTA (site AACTATTCTTA)" experimentalresult=2.2

---

experiment: recombinant UMI read abundance after kanamycin selection (control-corrected) (log10(CPM+1)); higher = more efficient recombination; extreme values may be limits of the assay; sequences stand for … in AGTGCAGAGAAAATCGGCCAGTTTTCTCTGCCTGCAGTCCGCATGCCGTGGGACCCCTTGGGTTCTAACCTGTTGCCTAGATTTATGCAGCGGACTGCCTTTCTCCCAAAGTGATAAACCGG…AGGTTGGTTTCACT; site = the 11-nt donor
Measured recombinant UMI read abundance (log10) of individual entries
measurementLabel: recombinant UMI read abundance (log10)

sequence="GTGACCCCATGGACCGGTTTTCCCGGTAATCCGTATTTGCC (site GTGACCCCTGG)" experimentalresult=1.83
sequence="GGCAATCCATGGACCGGTTTTCCCGGTAATCCGTATTTGAT (site GGCAATCCTGT)" experimentalresult=0
sequence="CGCTACACATGGACCGGTTTTCCCGGTAATCCGTATTTGCT (site CCCTACACTAG)" experimentalresult=1.29
sequence="TGGATGACATGGACCGGTTTTCCCGGTAATCCGTATTTGCA (site TGGATGACTTG)" experimentalresult=2.44
sequence="ATTCGAGCATGGACCGGTTTTCCCGGTAATCCGTATTTGCA (site CTTCGAGCTTG)" experimentalresult=1.44
